Record type: IC50 measurement. Applies to: MEKK2 (Homo sapiens, UniProt Q9Y2U5)

MOLECULE	VALUE
CCCS(=O)(=O)Nc1ccc(F)c(C(=O)c2n[nH]c3ncc(-c4ccc(C(=O)NCC(O)CO)cc4)cc23)c1F (stereo not shown) [Example 51l]	1 to 10 µM
CCCS(=O)(=O)Nc1ccc(F)c(C(=O)c2n[nH]c3ncc(-c4cccc(O)c4)cc23)c1F	1 to 10 µM
CCCS(=O)(=O)Nc1ccc(F)c(C(=O)c2n[nH]c3ncc(-c4cccc(N)c4)cc23)c1F	1 to 10 µM

Prompt: Query the reported IC50 for MEKK2 (Homo sapiens, UniProt Q9Y2U5); item: CS(=O)(=O)Nc1ccc(F)c(C(=O)c2n[nH]c3ncc(-c4ccc(S(N)(=O)=O)cc4)cc23)c1F [Example 51b]
Completion: 1 to 10 µM

Prompt: Report IC50 for `CCCCS(=O)(=O)Nc1cccc(C(=O)c2n[nH]c3ncc(-c4ccc(F)cc4C)cc23)c1F` tested on MEKK2 (Homo sapiens, UniProt Q9Y2U5).
Sequence (Q9Y2U5 whole entry): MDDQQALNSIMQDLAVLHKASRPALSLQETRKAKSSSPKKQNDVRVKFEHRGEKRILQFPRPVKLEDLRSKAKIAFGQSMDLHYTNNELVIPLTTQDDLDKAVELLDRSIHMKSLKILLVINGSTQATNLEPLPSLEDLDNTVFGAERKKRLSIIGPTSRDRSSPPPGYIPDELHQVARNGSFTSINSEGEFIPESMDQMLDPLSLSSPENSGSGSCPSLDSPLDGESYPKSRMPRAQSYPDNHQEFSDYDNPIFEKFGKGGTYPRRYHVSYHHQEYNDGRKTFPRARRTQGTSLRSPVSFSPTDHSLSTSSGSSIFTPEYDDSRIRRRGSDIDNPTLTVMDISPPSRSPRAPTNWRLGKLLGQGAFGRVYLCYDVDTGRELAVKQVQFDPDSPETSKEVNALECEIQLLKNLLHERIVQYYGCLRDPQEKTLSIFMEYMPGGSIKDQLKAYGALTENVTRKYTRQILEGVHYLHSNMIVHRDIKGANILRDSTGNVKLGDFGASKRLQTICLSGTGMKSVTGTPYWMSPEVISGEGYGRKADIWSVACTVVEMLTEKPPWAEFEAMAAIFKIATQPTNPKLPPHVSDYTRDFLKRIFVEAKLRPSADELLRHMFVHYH
Completion: > 10 µM

Prompt: Lookup: IC50 / MEKK2 (Homo sapiens, UniProt Q9Y2U5) / `CCCS(=O)(=O)Nc1c(F)ccc(C(=O)c2n[nH]c3ncc(-c4cnc(C(F)(F)F)nc4)cc23)c1F`
Completion: > 10 µM

Prompt: Item: `CCCS(=O)(=O)Nc1ccc(F)c(C(=O)c2n[nH]c3ncc(-c4ccc(OC)cc4Cl)cc23)c1F` Test system: MEKK2 (Homo sapiens, UniProt Q9Y2U5) Read-out: IC50 Value: ?
Completion: > 10 µM

====

Target: MKK4 (Homo sapiens, UniProt P45985)
Construct: S84/D399; host or cells: HEK-293
Sequence (P45985 84-399): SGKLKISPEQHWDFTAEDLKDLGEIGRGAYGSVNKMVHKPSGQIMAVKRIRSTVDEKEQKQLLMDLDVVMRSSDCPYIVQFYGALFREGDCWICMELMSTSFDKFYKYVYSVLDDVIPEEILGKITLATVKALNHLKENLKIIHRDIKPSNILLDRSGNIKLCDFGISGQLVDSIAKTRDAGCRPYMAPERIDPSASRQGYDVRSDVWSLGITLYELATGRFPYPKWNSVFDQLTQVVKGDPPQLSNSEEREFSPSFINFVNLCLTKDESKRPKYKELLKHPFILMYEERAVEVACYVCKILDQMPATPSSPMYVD
Experiment: KINOMEscan competition binding assay, MKK4 potency
Details: concentration of 100 nM
Method: The assay was performed by combining three components: DNA-tagged kinase; immobilized ligand; and a test compound. The ability of the test compound to compete with the immobilized ligand was measured via quantitative PCR of the DNA tag. The technology is described in detail in Fabian, M. A. et al. A small molecule-kinase interaction map for clinical kinase inhibitors. Nat. […] M. W. et al. A quantitative analysis of kinase inhibitor selectivity, Nat. […]
MEASURED QUANTITY: MKK4, residual percent of control binding (PoC)

Known MKK4, residual percent of control binding (PoC) results, listed for orientation:
COMPOUND	TESTED SYSTEM	VALUE
CCCS(=O)(=O)Nc1ccc(F)c(C(=O)c2n[nH]c3ncc(-c4ccc(Cl)c(Cl)c4)cc23)c1F [Example 33]	MKK4 (Homo sapiens, UniProt P45985)	O (PoC ≥ 30)
CCCS(=O)(=O)Nc1ccc(F)c(C(=O)c2n[nH]c3ncc(-c4ccccc4O)cc23)c1F [Example 21]	MKK4 (Homo sapiens, UniProt P45985)	++ (1 ≤ PoC < 10)
CCCS(=O)(=O)Nc1ccc(F)c(Cc2n[nH]c3ncc(-c4ccc(Cl)cc4)cc23)c1F [Example 50]	MKK4 (Homo sapiens, UniProt P45985)	O (PoC ≥ 30)
CCCS(=O)(=O)Nc1ccc(F)c(C(=O)c2n[nH]c3ncc(-c4ccccc4C)cc23)c1F [Example 13]	MKK4 (Homo sapiens, UniProt P45985)	++ (1 ≤ PoC < 10)
CCCS(=O)(=O)Nc1ccc(F)c(C(=O)c2n[nH]c3ncc(-c4ccc(O)cc4)cc23)c1F [Example 19]	MKK4 (Homo sapiens, UniProt P45985)	+++ (PoC < 1)

Prompt: Need MKK4, residual percent of control binding (PoC), item CCCS(=O)(=O)Nc1ccc(F)c(C(=O)c2n[nH]c3ncc(-c4ccc(C(=O)O)cc4)cc23)c1F [Example 51d]
Completion: +++ (PoC < 1)

Prompt: Reported MKK4, residual percent of control binding (PoC) for CCCS(=O)(=O)Nc1ccc(F)c(C(=O)c2n[nH]c3ncc(-c4cc(Cl)cc(Cl)c4)cc23)c1F [Example 22] : what is it?
Completion: O (PoC ≥ 30)

Prompt: I am curious: what MKK4, residual percent of control binding (PoC) value has been reported for CCCS(=O)(=O)Nc1ccc(F)c(C(=O)c2n[nH]c3ncc(-c4cccc(Cl)c4)cc23)c1F [Example 7] ?
Completion: O (PoC ≥ 30)

Prompt: Quick check: MKK4, residual percent of control binding (PoC) of CCCS(=O)(=O)Nc1ccc(F)c(C(=O)c2n[nH]c3ncc(-c4ccc(N)cc4)cc23)c1F [Example 18] ?
Completion: +++ (PoC < 1)

Prompt: Entry under review: CCCS(=O)(=O)Nc1ccc(F)c(C(=O)c2n[nH]c3ncc(-c4cccc(C(F)(F)F)c4)cc23)c1F [Example 30] . Reported MKK4, residual percent of control binding (PoC)?
Completion: O (PoC ≥ 30)

Prompt: Using the record for CCCS(=O)(=O)Nc1ccc(F)c(C(=O)c2n[nH]c3ncc(-c4ccc([N+](=O)[O-])cc4)cc23)c1F [Example 23] , report its MKK4, residual percent of control binding (PoC).
Completion: ++ (1 ≤ PoC < 10)
